Source: ChEMBL document CHEMBL4190307

Species: Homo sapiens
Assay: Selectivity index, ratio of IC50 for human serum BuChE to IC50 for human AChE
Each entry below carries its reported Ratio IC50.

Problem: Given the entry `Cc1cc(=O)oc2cc(OCc3cc[n+](Cc4ccc([N+](=O)[O-])cc4)cc3)ccc12.[Br-]` , report its measured Ratio IC50.
Solution: > 9.3

Problem: Which value of Ratio IC50 has been reported for `Cc1ccc(C[n+]2ccc(COc3ccc4c(C)cc(=O)oc4c3)cc2)cc1.[Br-]` in the records?
Solution: > 40

Problem: Returns the measured Ratio IC50 for the input molecule. Input: `Cc1cc(=O)oc2cc(OCc3cc[n+](Cc4ccccc4Br)cc3)ccc12.[Br-]`
Solution: 106

Others:
Problem: // lookup Ratio IC50 for `Cc1cc(=O)oc2cc(OCc3cc[n+](Cc4ccc(F)cc4)cc3)ccc12.[Br-]`
Solution: > 271

Problem: Entry `Cc1cccc(C[n+]2ccc(COc3ccc4c(C)cc(=O)oc4c3)cc2)c1.[Br-]` : reported Ratio IC50 = ?
Solution: > 120

Problem: Request the reported Ratio IC50 associated with `Cc1cc(=O)oc2cc(OCc3cc[n+](Cc4cccc(F)c4)cc3)ccc12.[Br-]`
Solution: > 240

---

Recorded Ratio IC50 values for a group of molecules are listed next.
Organism: Homo sapiens
Experiment: Selectivity index, ratio of IC50 for recombinant human MAOA to IC50 for recombinant human MAOB

Below are worked cases with known answers.
Problem: Which measured Ratio IC50 value corresponds to `Cc1cc(=O)oc2cc(OCc3cc[n+](Cc4cccc(F)c4)cc3)ccc12.[Br-]` ?
Solution: > 3.48

Problem: Look up Ratio IC50: `Cc1cc(=O)oc2cc(OCc3cc[n+](Cc4ccc([N+](=O)[O-])cc4)cc3)ccc12.[Br-]`
Solution: > 1.45

Problem: Report Ratio IC50 for `Cc1cc(=O)oc2cc(OCc3cc[n+](Cc4ccccc4)cc3)ccc12.[Br-]` please.
Solution: 6.92

Further cases:
Problem: Form field: reported Ratio IC50 of `Cc1ccccc1C[n+]1ccc(COc2ccc3c(C)cc(=O)oc3c2)cc1.[Br-]`
Solution: > 3.16

---

Target or system UniProt:P22303: recorded pIC50 listed per item.
Sequence (P22303 whole entry): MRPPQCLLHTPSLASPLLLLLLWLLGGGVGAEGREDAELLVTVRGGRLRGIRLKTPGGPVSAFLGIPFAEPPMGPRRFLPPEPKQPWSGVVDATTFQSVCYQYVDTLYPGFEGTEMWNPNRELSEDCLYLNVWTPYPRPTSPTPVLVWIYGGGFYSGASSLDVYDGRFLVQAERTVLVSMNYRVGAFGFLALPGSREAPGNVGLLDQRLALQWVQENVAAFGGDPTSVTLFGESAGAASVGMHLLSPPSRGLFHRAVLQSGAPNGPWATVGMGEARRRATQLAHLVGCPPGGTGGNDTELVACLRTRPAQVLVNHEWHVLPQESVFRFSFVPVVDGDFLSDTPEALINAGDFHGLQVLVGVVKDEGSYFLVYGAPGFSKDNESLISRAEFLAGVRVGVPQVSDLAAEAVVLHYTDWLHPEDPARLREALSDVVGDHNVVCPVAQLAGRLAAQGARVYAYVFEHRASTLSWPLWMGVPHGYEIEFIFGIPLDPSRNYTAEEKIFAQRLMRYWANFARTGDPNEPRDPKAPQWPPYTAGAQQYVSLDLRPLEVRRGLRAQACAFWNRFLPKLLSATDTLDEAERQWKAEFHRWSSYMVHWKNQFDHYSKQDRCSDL
As a rule, pIC50 stands for the negative log10 of the concentration, concentration in M.

In the examples that follow, each entry is paired with its recorded pIC50.
Problem: Form field - read-out: pIC50; system: UniProt:P22303; submitted item: `Cc1cc(=O)oc2cc(OCc3cc[n+](Cc4ccccc4)cc3)ccc12.[Br-]`
Solution: 6.45

Problem: Find pIC50 (UniProt:P22303) for the entry `Cc1cccc(C[n+]2ccc(COc3ccc4c(C)cc(=O)oc4c3)cc2)c1.[Br-]`
Solution: 7.08

Others:
Problem: Notebook: pull reported pIC50 for UniProt:P22303, entry `Cc1cc(=O)oc2cc(OCc3cc[n+](Cc4ccc([N+](=O)[O-])cc4)cc3)ccc12.[Br-]`
Solution: 5.97

---

Molecular target: UniProtKB P06276
Sequence (P06276 whole entry): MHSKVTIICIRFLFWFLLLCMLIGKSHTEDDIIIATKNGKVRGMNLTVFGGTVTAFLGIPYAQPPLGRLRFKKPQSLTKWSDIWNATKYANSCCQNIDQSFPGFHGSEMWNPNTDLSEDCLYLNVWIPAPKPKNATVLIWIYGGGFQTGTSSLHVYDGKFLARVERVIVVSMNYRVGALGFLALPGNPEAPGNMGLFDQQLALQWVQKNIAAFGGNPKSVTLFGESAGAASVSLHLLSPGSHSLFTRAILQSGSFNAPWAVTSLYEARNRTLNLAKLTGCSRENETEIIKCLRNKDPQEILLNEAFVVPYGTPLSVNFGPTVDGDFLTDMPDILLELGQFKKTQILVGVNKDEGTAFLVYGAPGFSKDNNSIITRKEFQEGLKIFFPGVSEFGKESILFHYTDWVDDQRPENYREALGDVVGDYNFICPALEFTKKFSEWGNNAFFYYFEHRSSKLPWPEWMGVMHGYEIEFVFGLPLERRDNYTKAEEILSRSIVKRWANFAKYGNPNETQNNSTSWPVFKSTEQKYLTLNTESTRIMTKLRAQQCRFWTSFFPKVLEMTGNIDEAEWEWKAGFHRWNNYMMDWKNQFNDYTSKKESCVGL
result_type: pIC50
// field semantics: pIC50 = negative decimal log of concentration (mol/L)

Problem: Under UniProtKB P06276: pIC50 value of `Cc1cc(=O)oc2cc(OCc3cc[n+](Cc4ccccc4Br)cc3)ccc12.[Br-]` ?
Solution: 5.08

---

Biological target: Amyloid-beta precursor protein (Homo sapiens) (UniProt P05067)
Sequence (P05067 whole entry): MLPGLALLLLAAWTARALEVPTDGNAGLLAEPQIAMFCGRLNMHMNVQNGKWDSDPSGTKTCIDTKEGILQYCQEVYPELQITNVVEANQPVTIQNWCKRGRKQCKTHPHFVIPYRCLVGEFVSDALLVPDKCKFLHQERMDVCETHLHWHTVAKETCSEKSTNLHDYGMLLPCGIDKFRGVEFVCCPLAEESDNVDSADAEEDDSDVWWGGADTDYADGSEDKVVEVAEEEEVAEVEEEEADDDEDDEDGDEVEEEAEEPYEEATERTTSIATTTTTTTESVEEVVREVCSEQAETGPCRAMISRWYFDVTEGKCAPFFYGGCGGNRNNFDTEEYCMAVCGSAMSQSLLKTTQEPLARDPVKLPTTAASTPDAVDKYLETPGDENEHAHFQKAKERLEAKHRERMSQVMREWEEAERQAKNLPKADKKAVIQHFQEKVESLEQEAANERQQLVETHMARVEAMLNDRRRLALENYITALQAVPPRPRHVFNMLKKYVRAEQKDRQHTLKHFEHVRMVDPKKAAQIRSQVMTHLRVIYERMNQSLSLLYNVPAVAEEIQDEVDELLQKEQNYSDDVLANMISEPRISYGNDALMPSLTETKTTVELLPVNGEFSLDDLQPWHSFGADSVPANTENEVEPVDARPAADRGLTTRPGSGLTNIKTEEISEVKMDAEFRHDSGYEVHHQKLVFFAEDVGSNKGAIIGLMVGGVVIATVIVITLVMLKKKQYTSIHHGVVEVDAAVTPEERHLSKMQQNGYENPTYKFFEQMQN
Test: Inhibition of self-induced amyloid beta (1 to 42) (unknown origin) aggregation at 20 uM after 46 to 48 hrs by thioflavin T-based fluorescence assay relative to control
result_type: inhibition (%)
// units = %; emit number, no label

# count of solved cases: 2
Problem: Return inhibition measured with Amyloid-beta precursor protein (Homo sapiens) (UniProt P05067) given this compound: `Cc1ccc(C[n+]2ccc(COc3ccc4c(C)cc(=O)oc4c3)cc2)cc1.[Br-]`
Solution: 58.5

Problem: Can you look up inhibition on Amyloid-beta precursor protein (Homo sapiens) (UniProt P05067) for `Cc1cc(=O)oc2cc(OCc3cc[n+](Cc4ccccc4)cc3)ccc12.[Br-]` ?
Solution: 39.3

// below: inhibition requested for another compound
Problem: Given the entry `Cc1ccccc1C[n+]1ccc(COc2ccc3c(C)cc(=O)oc3c2)cc1.[Br-]` , what inhibition was observed with Amyloid-beta precursor protein (Homo sapiens) (UniProt P05067)?
Solution: 55.2

---

Biological target: Acetylcholinesterase (Electrophorus electricus)
Sequence (O42275 whole entry): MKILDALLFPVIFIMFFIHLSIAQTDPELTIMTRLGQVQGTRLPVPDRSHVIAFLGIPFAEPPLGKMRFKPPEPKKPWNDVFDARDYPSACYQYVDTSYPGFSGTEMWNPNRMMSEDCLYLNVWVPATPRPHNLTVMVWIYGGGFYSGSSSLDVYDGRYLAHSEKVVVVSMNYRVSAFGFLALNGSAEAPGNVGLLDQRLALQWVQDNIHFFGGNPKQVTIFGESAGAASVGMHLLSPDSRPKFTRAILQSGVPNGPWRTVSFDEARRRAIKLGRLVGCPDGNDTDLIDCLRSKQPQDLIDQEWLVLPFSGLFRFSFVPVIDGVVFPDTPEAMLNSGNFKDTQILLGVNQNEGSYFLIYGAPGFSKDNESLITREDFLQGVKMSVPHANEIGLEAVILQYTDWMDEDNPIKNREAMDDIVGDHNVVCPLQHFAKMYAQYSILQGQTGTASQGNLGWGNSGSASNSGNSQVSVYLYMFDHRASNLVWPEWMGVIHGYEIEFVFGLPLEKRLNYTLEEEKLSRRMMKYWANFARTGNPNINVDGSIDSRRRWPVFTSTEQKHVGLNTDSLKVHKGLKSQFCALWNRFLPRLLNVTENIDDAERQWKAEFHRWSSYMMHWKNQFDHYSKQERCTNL
IC50 values for the compounds below.
A number alone suffices; assume nM.

Problem: # value lookup — system Acetylcholinesterase (Electrophorus electricus), readout IC50, item `Cc1cc(=O)oc2cc(OCc3cc[n+](Cc4ccc(Br)cc4)cc3)ccc12.[Br-]`
Solution: 119

Problem: # returns recorded IC50 (system: Acetylcholinesterase (Electrophorus electricus)) for `Cc1cc(=O)oc2cc(OCc3cc[n+](Cc4cccc(F)c4)cc3)ccc12.[Br-]`
Solution: 25.9

Problem: Hi! What's the reported IC50 for `Cc1ccccc1C[n+]1ccc(COc2ccc3c(C)cc(=O)oc3c2)cc1.[Br-]` on Acetylcholinesterase (Electrophorus electricus)?
Solution: 24.9

Further cases:
Problem: Observed IC50 on Acetylcholinesterase (Electrophorus electricus) for `Cc1cc(=O)oc2cc(OCc3cc[n+](Cc4cccc([N+](=O)[O-])c4)cc3)ccc12.[Br-]` , please.
Solution: 38.3

Problem: Form: Entry = `Cc1cc(=O)oc2cc(OCc3cc[n+](Cc4ccccc4Br)cc3)ccc12.[Br-]` | System = Acetylcholinesterase (Electrophorus electricus) | IC50 = ____
Solution: 36.7

Problem: Form entry - test system: Acetylcholinesterase (Electrophorus electricus); read-out: IC50; compound: `Cc1ccc(C[n+]2ccc(COc3ccc4c(C)cc(=O)oc4c3)cc2)cc1.[Br-]`
Solution: 136

Problem: For the record `Cc1cc(=O)oc2cc(OCc3cc[n+](Cc4ccccc4F)cc3)ccc12.[Br-]` , what value of IC50 is listed for Acetylcholinesterase (Electrophorus electricus)?
Solution: 29.5

Problem: Param readout = IC50; param system = Acetylcholinesterase (Electrophorus electricus); param query = `Cc1cccc(C[n+]2ccc(COc3ccc4c(C)cc(=O)oc4c3)cc2)c1.[Br-]` ; response: value
Solution: 37.3

---

Molecular target: Acetylcholinesterase (Electrophorus electricus)
Test: Inhibition of electric eel AChE using acetylthiocholine iodide as substrate preincubated for 6 mins followed by substrate addition measured up to 180 secs by Ellman's method
Listed molecules paired with reported pIC50
As a rule, pIC50 stands for the negative log10 of the concentration, concentration in M.

Example entries begin here.
Problem: Reported pIC50 for `Cc1cc(=O)oc2cc(OCc3cc[n+](Cc4cccc(Br)c4)cc3)ccc12.[Br-]` : what is it?
Solution: 7.20

Problem: Fill blank: measured pIC50 of the molecule `Cc1cc(=O)oc2cc(OCc3cc[n+](Cc4ccc([N+](=O)[O-])cc4)cc3)ccc12.[Br-]` is ____.
Solution: 5.93

Problem: Which measured pIC50 value corresponds to `Cc1cc(=O)oc2cc(OCc3cc[n+](Cc4ccccc4)cc3)ccc12.[Br-]` ?
Solution: 6.42

Further cases:
Problem: Return reported pIC50; argument: `Cc1cc(=O)oc2cc(OCc3cc[n+](Cc4ccc(F)cc4)cc3)ccc12.[Br-]`
Solution: 7.54

---

Attribute: Ratio IC50
Organism: Homo sapiens
Assay: Selectivity index, ratio of IC50 for recombinant human MAOA to IC50 for recombinant human MAOB

Example cases with answers are listed next.
Problem: Requested field: Ratio IC50. Item: `Cc1cc(=O)oc2cc(OCc3cc[n+](Cc4cccc(Br)c4)cc3)ccc12.[Br-]`
Solution: > 4.56

Problem: What does the data say about its Ratio IC50? Entry: `Cc1cc(=O)oc2cc(OCc3cc[n+](Cc4ccccc4Br)cc3)ccc12.[Br-]`
Solution: > 2.5

Next:
Problem: Entry `Cc1cc(=O)oc2cc(OCc3cc[n+](Cc4ccccc4F)cc3)ccc12.[Br-]` : reported Ratio IC50 = ?
Solution: > 2.37

Problem: Any idea what its Ratio IC50 is? The molecule is `Cc1cccc(C[n+]2ccc(COc3ccc4c(C)cc(=O)oc4c3)cc2)c1.[Br-]`
Solution: > 6.37

Problem: Ratio IC50 lookup needed for `Cc1cc(=O)oc2cc(OCc3cc[n+](Cc4ccc(Br)cc4)cc3)ccc12.[Br-]` , thanks.
Solution: > 2.58

Problem: What value of Ratio IC50 has been reported for the following molecule? `Cc1cc(=O)oc2cc(OCc3cc[n+](Cc4ccc(F)cc4)cc3)ccc12.[Br-]`
Solution: 0.46

Problem: Name the reported Ratio IC50 value associated with the molecule `Cc1ccc(C[n+]2ccc(COc3ccc4c(C)cc(=O)oc4c3)cc2)cc1.[Br-]`
Solution: > 2.56
